Test system: A498 renal
Assay: NCI tumour cell line growth inhibition, 48 h
Use true (1) when the recorded TGI is no lower than 30 µM; use false (0) when it is lower.

MOLECULE	TESTED SYSTEM	CLASS LABEL
Cc1cccc(Nc2cn(COCc3ccccc3)c(=O)[nH]c2=O)c1	A498 renal	true (1)
CN(C)CCn1c2ccccc2c2nc3cc4ccccc4cc3nc21	A498 renal	false (0)
CC(C)CCC1(O)O[C@H]2C[C@H]3[C@@H]4CCC5CC(=O)C=C[C@]5(C)[C@H]4CC[C@]3(C)[C@H]2[C@@H]1C (some centres undefined)	A498 renal	false (0)
CC(C)(C)c1ccc([I+]c2ccc(C(C)(C)C)cc2)cc1	A498 renal	false (0)
COc1ccc(Cc2nc3cc(C(F)(F)F)ccc3n2CCCN(C)C)cc1	A498 renal	true (1)
CC(=O)OC12c3ccccc3C1CCCCCC21OCCCO1 (centres undefined)	A498 renal	true (1)
O=C1OC(c2ccc(O)c(Cl)c2)(c2ccc(O)c(Cl)c2)c2ccc(Br)c3cccc1c23 (tested in a mixture with another compound)	A498 renal	true (1)
COc1cc(-c2[nH]ccc2Cl)oc1C1=C2N=C3C=C2C(C(C)C)C1CCCCCCCC3 (centres undefined)	A498 renal	false (0)

====

Tested on: UACC-257 melanoma
Experiment: NCI tumour cell line growth inhibition, 48 h; in the data active means GI50 below about 0.43 µM; inactive means the rest
Labels: YES (active), NO (inactive)

COMPOUND	CLASS LABEL
CC(C)(C)c1ccc([I+]c2ccc(C(C)(C)C)cc2)cc1	NO
O=C(COc1cccc(/C=C2\COc3ccccc3C2=O)c1)Nc1nccs1	NO
CN1CCN(c2ccc3nc(-c4cc(C(C)(C)C)c(O)c(C(C)(C)C)c4)[nH]c3c2)CC1	NO
CCCCCCCCCCCCCCCc1cc(O)ccc1N	NO
CS(=O)(=O)CCNCc1ccc(-c2ccc3ncnc(Nc4ccc(OCc5cccc(C(F)(F)F)c5)cc4)c3c2)o1	NO
CCN(CC)c1ccc2c(c1)Oc1nc(N)c(C#N)c(N)c1C2Sc1ccc(SC)cc1 (stereo unspecified)	NO
O=C1c2ccccc2C(=O)N1c1ccc(S(=O)(=O)Nc2ncccn2)cc1	NO
CN1C(=O)CNC(=O)[C@H](NC(=O)c2nc3ccccc3cc2O)CSSC[C@H]1C(=O)NCCc1nc2ccccc2cc1O	NO
C=CC1CC12C(=O)C1OC2(C)C2C(=O)c3c(ccc4c3ccc3ccccc34)C(=O)C12 (stereo unspecified)	NO
CCOC(=O)CC1(O)C=CC(=O)C=C1	NO
CCN(CC)CCOc1ccc(/C=C2\CC3C4CCC5=CC(=O)CC[C@]5(C)C4CC[C@]3(C)C2=O)cc1OC (stereo partly specified)	NO
CCc1c2c(nc3cc4c(cc13)OCO4)-c1cc3c(c(=O)n1C2)COC(=O)[C@@]3(CC)OC(=O)CN	YES
Nc1cc(-c2ccccc2)ccc1O	NO
CC1(C)N=C(N)N=C(N)N1c1ccc(F)c(C(F)(F)F)c1	NO
COc1ccc2c(c1)c(C1(c3cn(C)c4ccc(OC)cc34)C(=O)Nc3ccc(F)cc31)cn2C	NO
O=C(Nc1cc(C(F)(F)F)ccc1F)Nc1n[nH]c2ccccc12	NO

====

Listing of recorded TGI by entry.
System: OVCAR-3 ovarian
Test: NCI tumour cell line growth inhibition, 48 h
MEASURE: TGI

COMPOUND	RESULT
CC(NS(C)(=O)=O)c1ccccc1 (configuration not stated)	> 100 µM
C(=C\c1csnn1)/c1cccnc1	> 100 µM
CC(=O)O[C@@H]1CO[C@H]2O[C@H]3[C@@H](C(C=O)=C[C@H](O)[C@@H]4C5=C(C(C)C)CC[C@]5(C)CC[C@@]34C)[C@@]2(O)C1=O	0.278 µM
CCC[CH2][Sn]([CH2]CCC)([O]C(=O)c1cccc(F)c1)[O]C(=O)c1cccc(F)c1	2.17 µM
CC(C)OP(=O)(CN(C)/C(F)=N\C(F)(F)F)OC(C)C	> 100 µM
COP(C)(=O)/C(Cc1ccccc1)=N\O (configuration not stated)	> 100 µM
CC1(O)CC2C(CC1SCCO)C2(C)C (configuration not stated)	> 100 µM
COc1ccc2[nH]cc(-c3nc(-c4cn(C)c5ccncc45)cs3)c2c1	3.41 µM
O=c1c2ccc3cccc4c(=O)cc(c5ccccc15)-c2c34	> 100 µM
CC(=O)Nc1ncc(Sc2ccccc2C(=O)O)s1	> 100 µM
CC(=O)OCC1OC(n2c(N)c(C#N)c(-c3ccccc3)c(C#N)c2=S)C(OC(C)=O)C(OC(C)=O)C1OC(C)=O (configuration not stated)	> 100 µM
O=C(COc1cccc(/C=C2\COc3ccccc3C2=O)c1)Nc1nccs1	3.51 µM
O=C1Nc2ccccc2C1Cc1ccccc1 (configuration not stated)	> 100 µM
O=C(Nc1cc(C(F)(F)F)ccc1F)Nc1n[nH]c2ccccc12	> 100 µM
CN1CCN(c2ccc3nc(-c4cc(C(C)(C)C)c(O)c(C(C)(C)C)c4)[nH]c3c2)CC1	14 µM
N#CCC(=O)Nn1c(CC#N)nnc1Cc1ccccc1	> 100 µM
O=C(OCCOCBr)c1ccccc1	> 100 µM
Cc1cc(NS(=O)(=O)c2ccc(NC(=O)c3cccc4c(N)c5ccccc5nc34)cc2)no1	52.8 µM
[Cu+2].[O-]c1ccc2ccccc2c1N=Nc1ccccc1.[O-]c1ccc2ccccc2c1N=Nc1ccccc1	> 100 µM
Cc1csc2nc(-c3ccc([N+](=O)[O-])cc3)c(/C=N/N=C(N)N)n12	5.7 µM
COc1ccc(/C=C2\CSC/C(=C\c3ccc(OC)c(OC)c3OC)C2=O)c(OC)c1OC	> 100 µM
COc1cc2c(c(OC)c1OC)-c1[nH]ncc1CC2	> 100 µM

====

Tested on: BT-549 breast
Test: NCI tumour cell line growth inhibition, 48 h

RECORD SMILES	UNIT TAG	RESULT OPERATOR	TGI
COc1cc(OC)c2c(=O)c(O)c(-c3ccc(OC)c(OC)c3)oc2c1	µM	>	100
ClCCN(CCCl)c1ccc(-n2cnc3c(Cl)ncnc32)cc1	µM	=	12.9
Cc1cc2[nH]c3c(C#N)c(-c4ccccc4)c(N=Nc4cccc(C(F)(F)F)c4)c(=O)n3c2cc1C	µM	>	100
COc1ccc2c(c1)c(C1(c3cn(C)c4ccc(OC)cc34)C(=O)Nc3ccc(F)cc31)cn2C	µM	=	50.8
COc1cc(/C=C/C(C)=O)ccc1OP(=O)(O)O	µM	>	100

====

Tested on: RPMI-8226 leukemia
Assay: NCI tumour cell line growth inhibition, 48 h

COMPOUND	TGI
CN(C)CCn1c2ccccc2c2nc3cc4ccccc4cc3nc21	13.2 µM
COc1ccc2c(c1)c(C1(c3cn(C)c4ccc(OC)cc34)C(=O)Nc3ccc(F)cc31)cn2C	> 100 µM
CCOc1ccc2c(c1)/C(=C(\C(Cl)=C(Cl)Cl)[N+](=O)[O-])N2	> 100 µM
O=C(COc1cccc(/C=C2\COc3ccccc3C2=O)c1)Nc1nccs1	3.69 µM
CC1(c2ccc(Cl)cc2)CC(c2ccc(Cl)cc2)=C(C#N)C(=C(C#N)C#N)N1 (stereo not given)	> 100 µM
COc1ccc2c(c1)C/C(=C\c1ccc(O)c(OC)c1)C2=O	> 100 µM
CC[C@@]1(O)C(=O)OCc2c1cc1n(c2=O)Cc2c-1nc1ccccc1c2CC[Si](C)(C)C	0.834 µM
Cc1ccc2c(c1)NC(=O)CCSSCCC(=O)N2	> 100 µM
CC(=O)[O-].CC(=O)[O-].O=C(N/N=C/c1cc(Cl)cc(Cl)c1[OH2+])c1ccncc1.[Co+2]	> 100 µM
CCOC(=O)/N=C(\N)SCc1ccccc1	> 100 µM
O=C(Nc1ccc(Br)cc1)Nc1n[nH]c2ccccc12	> 100 µM
COc1cccc2cc(C(N)=O)c(=N)oc12	> 100 µM
CC(=O)OC1CC2CCC1(C)C2(C)C (stereo not given)	> 100 µM
CCOP(=O)(/C=C\n1cnc2c(=O)n(C(C)=O)c(N)nc21)OCC	> 100 µM
CC1(O)CC2C(CC1SCCO)C2(C)C (stereo not given)	> 100 µM
CCSC1=N/C(=C\c2ccccc2O)C(Nc2ccc(C)cc2)=N1	> 100 µM
O=C(NO)c1coc2ccccc2c1=O	> 100 µM
CCOC(=O)CC1(O)C=CC(=O)C=C1	28.4 µg/mL
CC(c1ccc(Br)cc1)C(C(=O)O)C(=O)O (stereo not given)	> 100 µM
CC(=O)Nc1ccc(CNc2cc(=O)[nH]c(=O)[nH]2)cc1	> 100 µM

====

System: NCI-H23 lung
Experiment: NCI tumour cell line growth inhibition, 48 h; in the data active means GI50 below about 0.43 µM; inactive means the rest
Labels: TRUE = active, FALSE = inactive

COMPOUND	CLASS LABEL
Brc1ccc([I+]c2ccc(Br)cc2)cc1	FALSE
CC(=O)OC1COC(S[As](C)C)C(OC(C)=O)C1OC(C)=O (stereo not given)	TRUE
C(=C1c2ccccc2-c2ccccc21)c1ccccn1	FALSE
CN1C(=O)CNC(=O)[C@H](NC(=O)c2nc3ccccc3cc2O)CSSC[C@H]1C(=O)NCCc1nc2ccccc2cc1O	FALSE
CCC(Sc1nnc2c3ccccc3n(CC)c2n1)C(=O)Nc1ccccc1OC (stereo not given)	FALSE
N#Cc1ccccc1C#C/C=C\C#Cc1ccc(OCCCNC(=O)c2cc3ccccc3[nH]2)cc1	FALSE
COc1ccc(-c2n[nH]nc2-c2csc3ccccc23)cc1OC	FALSE
CCc1c2c(nc3cc4c(cc13)OCO4)-c1cc3c(c(=O)n1C2)COC(=O)[C@@]3(CC)OC(=O)CN	TRUE
CCOC(=O)CC1(O)C=CC(=O)C=C1	FALSE
CS(=O)(=O)CCNCc1ccc(-c2ccc3ncnc(Nc4ccc(OCc5cccc(C(F)(F)F)c5)cc4)c3c2)o1	FALSE
